Tested on: HCT-15 colon
TEST METHOD NOTES: NCI tumour cell line growth inhibition, 48 h; in the data active = GI50 below about 0.43 µM; inactive = the rest
I would appreciate it if you answered using one of these outcomes: active, inactive

Solved entries:
| MOLECULE | ASSIGNED CLASS |
| --- | --- |
| COc1ccc(Oc2nc3cc(N)cc(N)c3nc2-c2ccccc2)cc1 | inactive |
| O=C(Oc1ccccc1)N(c1ccccc1)c1ccccc1 | inactive |
| COc1cc(C(=O)/C=C/c2cc(-c3ccc4c(c3)OCO4)n[nH]2)cc(OC)c1OC | inactive |
| C=C1c2nc3ccccc3n2C=C(c2cccc(Cl)c2)N1Cc1ccc(OC)cc1 | inactive |

[ask] What was the test verdict on `CCc1nc(C)cn1C(=O)OCc1nc2nc(Cl)nc(N3CCOCC3)c2[nH]1` ?
[reply] inactive

[ask] Query: recorded result category for `CCCCC(=O)N(c1ccc(Nc2c3ccccc3nc3cc([N+](=O)[O-])ccc23)cc1)S(C)(=O)=O` in this test
[reply] inactive

[ask] Can you look up the reported call for `Cc1nc2nc(C)n(CCN3CCOCC3)c(=O)c2c(-c2cccc([N+](=O)[O-])c2)c1C(=O)CCCCCCCCCCN1CCC(c2ccccc2)(c2ccccc2)CC1` for me?
[reply] inactive

[ask] Call for entry `CN1CCC2(CC1)N=C(SCC(=O)Nc1cnc3ccccc3c1)C(c1ccc(Br)cc1)=N2` :
[reply] inactive

[ask] # outcome recorded in this test, key = COc1cccc2c1C(=O)c1c(O)c3c(c(O)c1C2=O)C[C@@](O)(C(=O)CO)CC3OC1CC(N)C(OC2CCCCO2)C(C)O1 (stereo not given in full)
[reply] active

[ask] For this molecule, state the assay outcome: `C=CCn1c2ccccc2c2c3c(c4c5ccccc5n(CC=C)c4c21)C(=O)N(O)C3=O`
[reply] inactive

[ask] Hi, sorry to bother you, what did the test record for `COc1ccc2c(c1)C(=Nc1ccc(F)c(Cl)c1)c1c-2c(Nc2ccc(F)c(Cl)c2)nc2ccccc12` ?
[reply] inactive

[ask] Just curious, what result did `CCN(CC)CCNC(=O)c1cccc2c1-c1ccccc1C2=O` get here?
[reply] inactive

[ask] Record lookup: outcome of this test for COC(=O)C1C(C(=O)O)C2(c3ccccc3)C(=O)C1(c1ccccc1)C(c1ccccc1)=C2c1ccccc1 (stereo not given) ?
[reply] inactive

[ask] Hello, I am checking results. What call was entered for `NC(=O)c1c(NC(=O)c2cccs2)sc2c1CCC(=O)C2` ?
[reply] inactive

[ask] Write down the call the test reported for this molecule. Item: `C[C@@H](Nc1cc(F)cc(F)c1)c1cc(C(=O)N(C)C)cc2c(=O)cc(N3CCOCC3)oc12`
[reply] inactive

----------
Each item that follows carries a reported TGI.
System: M14 melanoma
TEST METHOD NOTES: NCI tumour cell line growth inhibition, 48 h

| COMPOUND | TGI |
| --- | --- |
| c1ccc(C2=NN2c2ccccc2)cc1 | > 100 µM |

Lab note: compound `C#C[C@@]1(O)[C@@H](CO)O[C@@H](n2cc(Br)c3c(Cl)ccnc32)[C@@H]1O` tested on M14 melanoma; recorded TGI was > 100 µM

The measured TGI that CCCCN=NNc1cn(C2OC(CO)C(O)C2O)c(=O)[nH]c1=O (stereo not given) showed for M14 melanoma is > 100 µM

Bench note, M14 melanoma: `CN1CCN(c2cc3nc(-c4ccc(Cl)cc4)[nH]c3cc2F)CC1` , TGI reads 8.4 µM
